Cited source: the supplement of paper PMC7366291

Kindly supply the reported pronephric angle neck segment values for the records listed here.
test system: Danio rerio Tg(wt1b:EGFP) embryo, pronephros; test: pronephric angle neck segment to proximal convoluted tubule (mean of left and right), fold change vs DMSO control; higher = larger pronephric angle; conditions: 25 µM; exposure: 24-48 hpf
Where a name gives a salt, the structure may show the parent alone.
Keep the answer to the number alone.

Query string: What value of pronephric angle neck segment on Danio rerio Tg(wt1b:EGFP) embryo, pronephros does C[C@H]1O[C@H](O[C@H]2[C@H](O)[C@@H](O)[C@@H](O[C@H]3[C@H](O)[C@@H](O)C(O)O[C@@H]3CO)O[C@@H]2CO)[C@H](O)[C@@H](O)[C@@H]1N[C@H]1C=C(CO)[C@@H](O)[C@H](O)[C@H]1O (stereo not given in full) [Acarbose] have?
Result string: 1.02

Query string: What value of pronephric angle neck segment on Danio rerio Tg(wt1b:EGFP) embryo, pronephros does COc1ccc2c(c1)N(C[C@H](C)CN(C)C)c1ccccc1S2 [Methotrimeprazine maleat salt] have?
Result string: 1.02

Query string: What value of pronephric angle neck segment on Danio rerio Tg(wt1b:EGFP) embryo, pronephros does COc1ccccc1Oc1c(NS(=O)(=O)c2ccc(C(C)(C)C)cc2)nc(-c2ncccn2)nc1OCCO [Bosentan] have?
Result string: 1.03

Query string: What value of pronephric angle neck segment on Danio rerio Tg(wt1b:EGFP) embryo, pronephros does CCCC(C(=O)OCCN(CC)CC)(c1ccccc1)c1ccccc1 [Proadifen hydrochloride] have?
Result string: 1.03

Query string: What value of pronephric angle neck segment on Danio rerio Tg(wt1b:EGFP) embryo, pronephros does CC1=C(/C=C/C(C)=C/C=C/C(C)=C/C(=O)O)C(C)(C)CCC1 [Retinoic acid] have?
Result string: 1.67

Query string: What value of pronephric angle neck segment on Danio rerio Tg(wt1b:EGFP) embryo, pronephros does CC(C)(CO)C(O)C(=O)NCCCO (stereo not given) [Panthenol (D)] have?
Result string: 1.01

Query string: What value of pronephric angle neck segment on Danio rerio Tg(wt1b:EGFP) embryo, pronephros does Cc1c(NC(=O)c2cccnc2)c(=O)n(-c2ccccc2)n1C [Nifenazone] have?
Result string: 1

Query string: What value of pronephric angle neck segment on Danio rerio Tg(wt1b:EGFP) embryo, pronephros does CN(C)CCCO[C@@H]1[C@H]2OC(C)(C)O[C@H]2O[C@@H]1[C@H](O)CO [Amiprilose hydrochloride] have?
Result string: 1

Query string: What value of pronephric angle neck segment on Danio rerio Tg(wt1b:EGFP) embryo, pronephros does CCN(CC)CCN[C@@H](C(=O)OCCC(C)C)c1ccccc1 [Camylofine chlorhydrate] have?
Result string: 0.977

Query string: What value of pronephric angle neck segment on Danio rerio Tg(wt1b:EGFP) embryo, pronephros does CC(C(=O)O)c1ccc(C(=O)c2cccs2)cc1 (stereo not given) [Suprofen] have?
Result string: 1.03

Query string: What value of pronephric angle neck segment on Danio rerio Tg(wt1b:EGFP) embryo, pronephros does CC(C)n1c(/C=C/C(O)CC(O)CC(=O)O)c(-c2ccc(F)cc2)c2ccccc21 (stereo not given) [Fluvastatin sodium salt] have?
Result string: 1.56

Query string: What value of pronephric angle neck segment on Danio rerio Tg(wt1b:EGFP) embryo, pronephros does Nc1ncnc2c1ncn2C1OC(COP(=O)(O)O)C(O)C1O (stereo not given) [Adenosine 5'-monophosphate monohydrate] have?
Result string: 0.966

Query string: What value of pronephric angle neck segment on Danio rerio Tg(wt1b:EGFP) embryo, pronephros does Cc1cc(C(C)(C)C)cc(C)c1CC1=NCCN1 [Xylometazoline hydrochloride] have?
Result string: 1

Query string: What value of pronephric angle neck segment on Danio rerio Tg(wt1b:EGFP) embryo, pronephros does CN[C@@H]1[C@@H](O)[C@@H](O[C@@H]2[C@@H](O)[C@H](O[C@H]3OC(CN)=CC[C@H]3N)[C@@H](N)C[C@H]2N)OC[C@]1(C)O [Sisomicin sulfate] have?
Result string: 1.11

Query string: What value of pronephric angle neck segment on Danio rerio Tg(wt1b:EGFP) embryo, pronephros does CN1CCCC(CC2c3ccccc3Sc3ccccc32)C1 (stereo not given) [Metixene hydrochloride] have?
Result string: 0.953

----------
tested on: Danio rerio Tg(wt1b:EGFP) embryo, pronephros; assay: fraction of imaged embryos annotated as normal kidney; higher = less nephrotoxic; extreme values may be limits of the assay; details: 25 µM; exposure: 24-48 hpf
Counter-ions that a name gives are not always drawn.
Kindly supply the reported fraction of imaged embryos annotated as normal kidney values for the records listed here.
Keep the answer to the number alone.

Query string: Given Cc1nnc(SCC2=C(C(=O)O)N3C(=O)[C@@H](NC(=O)Cn4cnnn4)[C@H]3SC2)s1 [Cefazolin sodium salt] , state its recorded fraction of imaged embryos annotated as normal kidney.
Result string: 0.75

Query string: Given CC(C)NCC(O)c1cc(O)cc(O)c1 (centres undefined) [Metaproterenol sulfate, orciprenaline sulfate] , state its recorded fraction of imaged embryos annotated as normal kidney.
Result string: 0.909

Query string: Given O=C1NCCN1c1ncc([N+](=O)[O-])s1 , state its recorded fraction of imaged embryos annotated as normal kidney.
Result string: 0.833

Query string: Given COC(=O)[C@H](c1ccccc1Cl)N1CCc2sccc2C1 , state its recorded fraction of imaged embryos annotated as normal kidney.
Result string: 0.833

----------
tested on: Danio rerio Tg(wt1b:EGFP) embryo, pronephros; experiment: fraction of imaged embryos annotated as normal kidney; higher = less nephrotoxic; extreme values may be limits of the assay; conditions: 25 µM; exposure: 24-48 hpf
Counter-ions that a name gives are not always drawn.
reported metric: fraction of imaged embryos annotated as normal kidney
Keep the answer to the number alone.

Query string: Given O=C(O)COCCN1CCN(C(c2ccccc2)c2ccc(Cl)cc2)CC1 (centres undefined) [Cetirizine dihydrochloride] , state its recorded fraction of imaged embryos annotated as normal kidney.
Result string: 1

Query string: Given CN1CCN(CCCN2c3ccccc3Sc3ccc(C(F)(F)F)cc32)CC1 [Trifluoperazine dihydrochloride] , state its recorded fraction of imaged embryos annotated as normal kidney.
Result string: 0.833

Query string: Given O=c1cc(-c2ccc(O)c(O)c2)oc2cc(O)cc(O)c12 , state its recorded fraction of imaged embryos annotated as normal kidney.
Result string: 0.917

Query string: Given CCn1cc(C(=O)O)c(=O)c2cc(F)c(N3CCNCC3)nc21 , state its recorded fraction of imaged embryos annotated as normal kidney.
Result string: 0.727

----------
test system: Danio rerio Tg(wt1b:EGFP) embryo, pronephros; experiment: pronephric angle neck segment to proximal convoluted tubule (mean of left and right), fold change vs DMSO control; higher = larger pronephric angle; conditions: 25 µM; exposure: 24-48 hpf
Structures can show the parent of a compound that is named as a salt.
reported metric: pronephric angle neck segment
Keep the answer to the number alone.

Query string: Given CCn1cc(C(=O)O)c(=O)c2cc(F)c(N3CCN(C)CC3)cc21 [Pefloxacine] , state its recorded pronephric angle neck segment.
Result string: 1.01

Query string: Given CCN(CCCc1ccccc1)CCCc1ccccc1 [Alverine citrate salt] , state its recorded pronephric angle neck segment.
Result string: 0.942

Query string: Given NS(=O)(=O)c1cc2c(cc1Cl)N=CNS2(=O)=O [Chlorothiazide] , state its recorded pronephric angle neck segment.
Result string: 0.99

Query string: Given CCOc1cc(CC(=O)N[C@@H](CC(C)C)c2ccccc2N2CCCCC2)ccc1C(=O)O [Repaglinide] , state its recorded pronephric angle neck segment.
Result string: 1.06

Query string: Given CC1=C(CC(=O)O)c2cc(F)ccc2/C1=C\c1ccc([S+](C)[O-])cc1 (stereo not drawn) [Sulindac] , state its recorded pronephric angle neck segment.
Result string: 1.04

Query string: Given CCS(=O)(=O)CCn1c([N+](=O)[O-])cnc1C [Tinidazole] , state its recorded pronephric angle neck segment.
Result string: 1.02

Query string: Given CC(C(O)c1ccc(O)cc1)N1CCC(Cc2ccccc2)CC1 (stereo not drawn) [Ifenprodil tartrate] , state its recorded pronephric angle neck segment.
Result string: 0.942

Query string: Given Cc1cc(CC(=O)O)n(C)c1C(=O)c1ccc(Cl)cc1 [Zomepirac sodium salt] , state its recorded pronephric angle neck segment.
Result string: 1.23

Query string: Given NCc1ccc(S(N)(=O)=O)cc1 [Mafenide hydrochloride] , state its recorded pronephric angle neck segment.
Result string: 0.951

Query string: Given CN(C)CCC[C@@]1(c2ccc(F)cc2)OCc2cc(C#N)ccc21 [Escitalopram oxalate] , state its recorded pronephric angle neck segment.
Result string: 0.941

Query string: Given CC=CC(=O)N(CC)c1ccccc1C [Crotamiton] , state its recorded pronephric angle neck segment.
Result string: 1

Query string: Given CN(C)CCCOc1nn(Cc2ccccc2)c2ccccc12 [Benzydamine hydrochloride] , state its recorded pronephric angle neck segment.
Result string: 0.994

Query string: Given N=C(N)NCc1cccc(I)c1 [Iobenguane sulfate] , state its recorded pronephric angle neck segment.
Result string: 1.02

Query string: Given C[C@@H]1C[C@H]2[C@@H]3C[C@H](F)C4=CC(=O)C=C[C@]4(C)[C@@]3(F)[C@@H](O)C[C@]2(C)[C@@]1(O)C(=O)COC(=O)C(C)(C)C [Flumethasone pivalate] , state its recorded pronephric angle neck segment.
Result string: 0.989

Query string: Given CN1CCN(C(c2ccccc2)c2ccccc2)CC1 [Cyclizine hydrochloride] , state its recorded pronephric angle neck segment.
Result string: 0.952

Query string: Given CCN(CC)CCOCCOC(=O)C1(c2ccccc2)CCCC1 [Carbetapentane citrate] , state its recorded pronephric angle neck segment.
Result string: 1.06

Query string: Given CCCC1O[C@@H]2C[C@H]3[C@@H]4CCC5=CC(=O)C=C[C@]5(C)[C@H]4[C@@H](O)C[C@]3(C)[C@]2(C(=O)CO)O1 (stereo partly drawn) [Budesonide] , state its recorded pronephric angle neck segment.
Result string: 1.04

Query string: Given CNCCCN1c2ccccc2CCc2ccccc21 [Desipramine hydrochloride] , state its recorded pronephric angle neck segment.
Result string: 1
